tested on: Heliothis virescens; test: Heliothis virescens (tobacco budworm), eggs on artificial diet; format: in vivo; settings: 120 h, application rate of 200 ppm, egg mortality, larval mortality, growth inhibition 5 days after infestation
endpoint.label: pest or weed control at 200 ppm

compound: CCNS(=O)(=O)CSc1ccc(C2=NOC(c3cc(Cl)cc(Cl)c3)(C(F)(F)F)C2)cc1Br (stereo not shown) [Compound A3]
endpoint.label: pest or weed control at 200 ppm
measurement: ≥ 80%
//
compound: CCNS(=O)(=O)CSc1ccc(C2=NO[C@@](c3cc(Cl)cc(Cl)c3)(C(F)(F)F)C2)cc1Br [Compound B1]
endpoint.label: pest or weed control at 200 ppm
measurement: ≥ 80%
//
compound: O=S(=O)(CSc1ccc(C2=NO[C@@](c3cc(Cl)cc(Cl)c3)(C(F)(F)F)C2)cc1Br)NC1CC1 [Compound B3]
endpoint.label: pest or weed control at 200 ppm
measurement: ≥ 80%
//
compound: CC(C)NS(=O)(=O)CSc1ccc(C2=NO[C@@](c3cc(Cl)cc(Cl)c3)(C(F)(F)F)C2)cc1Br [Compound B4]
endpoint.label: pest or weed control at 200 ppm
measurement: ≥ 80%
//
compound: NS(=O)(=O)CSc1ccc(C2=NOC(c3cc(Cl)cc(Cl)c3)(C(F)(F)F)C2)cc1Br (stereo not shown) [Compound A1]
endpoint.label: pest or weed control at 200 ppm
measurement: ≥ 80%

Input: So what pest or weed control at 200 ppm did C#CCNS(=O)(=O)CSc1ccc(C2=NO[C@@](c3cc(Cl)cc(Cl)c3)(C(F)(F)F)C2)cc1Br [Compound B5] get with Heliothis virescens?
Output: ≥ 80%

Input: So what pest or weed control at 200 ppm did O=S(=O)(CS(=O)(=O)c1ccc(C2=NOC(c3cc(Cl)cc(Cl)c3)(C(F)(F)F)C2)cc1Br)NC1CC1 (stereo not shown) [Compound B6] get with Heliothis virescens?
Output: ≥ 80%
